Property: pKi; scope: individual molecules
# target entity: PNP from H. pylori strain 26695 (Helicobacter pylori)
# Construct: made in house; host or cells: E. coli
# Sequence (P56463 whole entry): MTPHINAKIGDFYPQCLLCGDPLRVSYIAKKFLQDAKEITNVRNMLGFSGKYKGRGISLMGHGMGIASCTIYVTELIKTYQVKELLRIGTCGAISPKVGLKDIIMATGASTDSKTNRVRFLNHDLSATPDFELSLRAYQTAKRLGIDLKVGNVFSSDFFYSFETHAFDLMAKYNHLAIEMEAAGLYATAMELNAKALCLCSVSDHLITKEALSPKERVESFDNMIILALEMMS
# procedure details: Inhibition of PNP from H. pylori, spectrophotometric phosphorolysis assay
# Assay type: biochemical
# test conditions: 7-methylguanosine substrate, 25° C., pH 7.0, 50 mM phosphate; non-competitive model; read-out: Kin
Scale for pKi: -log10 of concentration given in mol/L; no unit attached.

In the examples that follow, each entry is paired with its recorded pKi.
Clc1nc(Cl)c2[nH]cnc2n1 [2,6-dichloropurine] yielded pKi of 4.65

Clc1nc(OCc2ccccc2)c2[nH]cnc2n1 [6BnO-2Cl-Pu, 6-benzyloxy-2-chloropurine] yielded pKi of 5.19

Others:
c1ccc(CSc2ncnc3nc[nH]c23)cc1 [6-benzylthiopurine] yielded pKi of 5.10
